# method.summary: Water solubility testing of compounds (HPLC)
# condition.set: deionized water, 37 °C water bath
This listing pairs compounds with measured Water-solubility.
endpoint.name: Water-solubility (µg/mL)

* C[C@@]12CC[C@@H]3[C@H](OC(=O)[C@H]3CN3CCNCC3)[C@@H]3[C@]1(CC[C@@]3(C)O)C2 | 1488
* CCCCN(CCCC)C[C@@H]1C(=O)O[C@H]2[C@H]1CC[C@@]1(C)C[C@]13CC[C@@](C)(O)[C@H]23 | 682
* C=C1C(=O)O[C@H]2[C@H]1CCC(C)=C1CC[C@@](C)(OC(=O)NCCN3CCOCC3)[C@@H]12 | 202500
* CCOC(=O)[C@@H]1CCCN1C[C@@H]1C(=O)O[C@H]2[C@H]1CC[C@@]1(C)C[C@]13CC[C@@](C)(O)[C@H]23 | 822
* C[C@@]12CC[C@@H]3[C@H](OC(=O)[C@H]3CN3CC4CCCC4C3)[C@@H]3[C@]1(CC[C@@]3(C)O)C2 (stereo partly drawn) | 419
* C[C@@]12CC[C@@H]3[C@H](OC(=O)[C@H]3CN3CCC4(CCCC4)CC3)[C@@H]3[C@]1(CC[C@@]3(C)O)C2 | 310
* CCCN(CCC)C[C@@H]1C(=O)O[C@H]2[C@H]1CC[C@@]1(C)C[C@]13CC[C@@](C)(O)[C@H]23 | 715
* C[C@@]12CC[C@@H]3[C@H](OC(=O)[C@H]3CN3CCC4(CC3)CC4)[C@@H]3[C@]1(CC[C@@]3(C)O)C2 | 584
* C[C@@]12CC[C@@H]3[C@H](OC(=O)[C@H]3CN3CCCCCCC3)[C@@H]3[C@]1(CC[C@@]3(C)O)C2 | 623
